test: growth inhibitors of tim10-1 mutant yeast, confirmation, single concentration, luminescence, S. cerevisiae (AID 463213);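 note: tim10-1 mutant grown at permissive 25 °C to find synthetic lethal compounds; 0% = DMSO yeast wells and 100% = medium wells without yeast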; conditions: S. cerevisiae tim10-1 ts strain growth, BacTiter-Glo, 24 h; at 20 µM
Among all 7,400 compounds or so, about 4,100 (55%) were called active.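 Rule for the calls: active = inhibition of yeast growth at or above a set limit in either of two repeat tests at 20 µM; inactive = the rest.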 The set was probably picked from earlier hits. The list is a sample of the results.
Allowed answers: 1 (yes) (active), 0 (no) (inactive)

Answered cases to consult:
{"compound.smiles": "COC(=O)CSc1snnc1-c1ccc(Cl)c(Cl)c1", "assigned.label": "1 (yes)"}
{"compound.smiles": "COc1ccc(NC(=O)c2cc3nc(-c4ccccc4)cc(C)n3n2)cc1OC", "assigned.label": "1 (yes)"}
{"compound.smiles": "Cc1ccc(Nc2nc(-c3ccc(O)cc3O)cs2)nc1", "assigned.label": "1 (yes)"}
{"compound.smiles": "CCC(C)(C)n1nnnc1CN1CCN(c2nc3ccc(C)cc3cc2C#N)CC1", "assigned.label": "1 (yes)"}

Field: outcome | Entry: Cc1cc(Br)ccc1NC(=O)c1sc2ncn(CC(=O)N3CCN(c4ccccn4)CC3)c(=O)c2c1C
0 (no)

Fill in: this test's call for Cc1ccc2c(c1)c1ncnc(N3CCc4ccccc4C3)c1n2C is ___
0 (no)
